SYSTEM_UNDER_TEST: PPARγ (peroxisome proliferator-activated receptor γ) (Homo sapiens)
Sequence (P37231 232-505 limits assumed): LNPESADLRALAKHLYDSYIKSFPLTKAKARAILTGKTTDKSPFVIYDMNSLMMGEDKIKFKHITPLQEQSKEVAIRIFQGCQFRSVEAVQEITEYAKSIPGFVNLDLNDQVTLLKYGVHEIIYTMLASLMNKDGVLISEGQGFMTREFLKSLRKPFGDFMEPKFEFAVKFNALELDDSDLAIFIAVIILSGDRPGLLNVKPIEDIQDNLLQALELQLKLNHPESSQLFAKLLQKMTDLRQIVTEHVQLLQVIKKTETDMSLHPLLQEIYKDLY
TEST_PROTOCOL: Gal4-PPARγ-LBD one-hybrid luciferase reporter assay in HEK293 cells (partial agonist)
Readings of pEC50 for the listed molecules
Kindly note that pEC50 refers to -log10 of the concentration in mol/L and answer with the value alone.

C=CCc1ccc(O)c(-c2cc(CC=C)c(CCC/C=C\Cc3ccc(O)cc3)cc2O)c1 [III, Sesqui magnolol A] = 5.97

Next, consider the following molecule.
In: Bench note: what pEC50 did C=CCc1ccc(O)c(-c2cc(C/C=C\CCCc3cc(O)ccc3CC=C)ccc2O)c1 [IV, Sesqui magnolol B] show?
Out: 6.11
